Quick reference: pIC50 of the listed items.
# targetSystem: Tyrosine-protein kinase JAK2 (Mus musculus, UniProt Q62120, V617F)
# Sequence (Q62120 as listed by the source V617F): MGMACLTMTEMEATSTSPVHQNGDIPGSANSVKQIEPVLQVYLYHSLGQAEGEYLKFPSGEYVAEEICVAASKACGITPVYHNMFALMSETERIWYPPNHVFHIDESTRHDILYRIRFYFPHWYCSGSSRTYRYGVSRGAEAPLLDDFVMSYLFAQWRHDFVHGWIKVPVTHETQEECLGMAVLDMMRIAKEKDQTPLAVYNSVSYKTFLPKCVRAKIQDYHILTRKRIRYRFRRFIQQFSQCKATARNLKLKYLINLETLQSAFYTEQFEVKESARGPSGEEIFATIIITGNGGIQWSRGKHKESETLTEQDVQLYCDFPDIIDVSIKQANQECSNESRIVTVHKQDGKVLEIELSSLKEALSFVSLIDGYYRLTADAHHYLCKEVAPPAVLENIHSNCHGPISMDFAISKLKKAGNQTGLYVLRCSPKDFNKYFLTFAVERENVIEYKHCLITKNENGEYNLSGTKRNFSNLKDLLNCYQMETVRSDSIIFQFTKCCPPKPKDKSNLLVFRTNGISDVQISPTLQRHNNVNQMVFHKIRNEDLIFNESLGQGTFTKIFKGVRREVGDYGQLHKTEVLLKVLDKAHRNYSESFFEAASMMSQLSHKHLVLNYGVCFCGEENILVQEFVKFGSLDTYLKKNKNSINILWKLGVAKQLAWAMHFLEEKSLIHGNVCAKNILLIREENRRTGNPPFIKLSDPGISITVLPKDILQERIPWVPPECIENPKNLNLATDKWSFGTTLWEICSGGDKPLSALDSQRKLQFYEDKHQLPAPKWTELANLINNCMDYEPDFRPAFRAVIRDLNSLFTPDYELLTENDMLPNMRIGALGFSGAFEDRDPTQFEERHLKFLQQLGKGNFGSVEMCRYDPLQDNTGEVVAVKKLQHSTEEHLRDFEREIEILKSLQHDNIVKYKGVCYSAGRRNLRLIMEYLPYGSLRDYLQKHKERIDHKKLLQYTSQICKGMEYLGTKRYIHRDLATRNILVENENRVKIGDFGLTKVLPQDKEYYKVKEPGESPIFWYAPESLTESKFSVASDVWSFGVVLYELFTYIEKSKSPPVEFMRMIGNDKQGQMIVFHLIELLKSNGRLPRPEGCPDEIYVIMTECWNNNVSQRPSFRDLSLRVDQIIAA
# protocolDetails: Inhibition of JAK2 V617F mutant in mouse BaF3 cells
# Format: cell-based
Note on units: pIC50 is unitless, being -log10 of a concentration expressed in mol/L.

Observe how each entry below is paired with its result.
CCS(=O)(=O)NCc1ccc(Nc2ncc(C)c(-c3cnn(C(C)C)c3)n2)cc1    7.16
CCCS(=O)(=O)NCc1ccc(Nc2ncc(C)c(-c3cnn(C(C)C)c3)n2)cc1    7.00
Cc1cnc(Nc2ccc(CCNC(=O)CCCN(C)C)cc2)nc1-c1cnn(C(C)C)c1    5.48
Cc1cnc(Nc2ccc(CCNC(=O)/C=C/CN(C)C)cc2)nc1-c1cnn(C(C)C)c1    5.94
Cc1cnc(Nc2ccc(CCNC(=O)/C=C/C(=O)c3ccccc3)cc2)nc1-c1cnn(C(C)C)c1    6.75
Cc1cnc(Nc2ccc(CNC(=O)/C=C/CN(C)C)cc2)nc1-c1cnn(C(C)C)c1    6.58
Cc1cnc(Nc2ccc(CNC(=O)CCl)cc2)nc1-c1cnn(C(C)C)c1    7.01
Cc1cnc(Nc2ccc(CCNC(=O)CCCl)cc2)nc1-c1cnn(C(C)C)c1    5.66

Report pIC50, nothing else, for this compound: `Cc1cnc(Nc2ccc(CNC(=O)CCCN(C)C)cc2)nc1-c1cnn(C(C)C)c1`
6.06

Report pIC50, nothing else, for this compound: `Cc1cnc(Nc2ccc(CNC(=O)/C=C/C(=O)c3ccccc3)cc2)nc1-c1cnn(C(C)C)c1`
7.06

Report pIC50, nothing else, for this compound: `Cc1cnc(Nc2ccc(CNC(=O)C3CC3)cc2)nc1-c1cnn(C(C)C)c1`
7.14

Report pIC50, nothing else, for this compound: `Cc1cnc(Nc2ccc(CCNC(=O)CCl)cc2)nc1-c1cnn(C(C)C)c1`
6.43

Report pIC50, nothing else, for this compound: `C=CS(=O)(=O)NCCc1ccc(Nc2ncc(C)c(-c3cnn(C(C)C)c3)n2)cc1`
6.77

Report pIC50, nothing else, for this compound: `CCCCS(=O)(=O)NCc1ccc(Nc2ncc(C)c(-c3cnn(C(C)C)c3)n2)cc1`
6.74

Report pIC50, nothing else, for this compound: `Cc1cnc(Nc2ccc(CNC(=O)CCCl)cc2)nc1-c1cnn(C(C)C)c1`
6.41

Report pIC50, nothing else, for this compound: `Cc1cnc(Nc2ccc(CNS(=O)(=O)C3CC3)cc2)nc1-c1cnn(C(C)C)c1`
7.27

Report pIC50, nothing else, for this compound: `C=CC(=O)NCc1ccc(Nc2ncc(C)c(-c3cnn(C(C)C)c3)n2)cc1`
6.89

Report pIC50, nothing else, for this compound: `C=CS(=O)(=O)NCc1ccc(Nc2ncc(C)c(-c3cnn(C(C)C)c3)n2)cc1`
7.60
